B1: library; a variant is named by its letters at N, in order (parent)
chain: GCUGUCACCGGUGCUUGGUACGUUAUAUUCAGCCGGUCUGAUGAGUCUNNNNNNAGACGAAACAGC

variants of: B1; assay: normalized RNA/DNA level without ligand (relative to sTRSVctl = 100) (log10 (% of sTRSVctl)); HEK293T overexpressing SLC46A1; higher = less ribozyme self-cleavage, higher mRNA level; settings: without (6R,S)-folinic acid; ligand present: no
parameter: normalized RNA/DNA level without ligand (log10)
Answers are plain numbers.

- mutation-descriptor: "UCGCUA"
  numeric-result: 2.02
- mutation-descriptor: "CGUGAA"
  numeric-result: 1.95
- mutation-descriptor: "AGGGCC"
  numeric-result: 2.07
- mutation-descriptor: "GUUAGA"
  numeric-result: 2

// each listed variant needs a value for normalized RNA/DNA level without ligand (log10)
1. AAUCCU
2. UUAGGU
3. GAGUAG
4. UGGUUA
5. UUGUGC
6. GCCCCU
7. GGUCUU
8. UGUAGA

stdout:
1: 2.05; 2: 1.94; 3: 1.94; 4: 1.94; 5: 2.02; 6: 2.05; 7: 2.02; 8: 1.84

stdin: Return reported normalized RNA/DNA level without ligand (log10); argument: ACCUUG
stdout: 1.95
